Measured Avg % Insert values are reported for all entries that follow.
system: TTR; assay: TTR editing in primary cyno hepatocytes electroporated with Spy Cas9 protein and dgRNAs (Tables 10, 11); assay type: cell-based, cynomolgus monkey; conditions: Table 10; primary cyno hepatocytes electroporated with Spy Cas9 protein (RNP) and dgRNAs
Reply with just the number (in %).

Field: example entries. Status: answers known.
# query-sequence, target-or-test-system, value-kind, measure-unit, measured-result
measured = [
    ("UUUGACCAUCAGAGGACACU (tested as dual guide RNA, chemistry not given here) [CR003344]", "TTR", "Avg % Insert", "%", 33.81),
    ("AGUCCCUCAUUCCUUGGGAU (tested as dual guide RNA, chemistry not given here) [CR003392]", "TTR", "Avg % Insert", "%", 6.63),
    ("CCUCCUCUGCCUUGCUGGAC (tested as dual guide RNA, chemistry not given here) [CR003336]", "TTR", "Avg % Insert", "%", 8.10),
]

Query the reported Avg % Insert for TTR; item: UGUAGAAGGGAUAUACAAAG (tested as dual guide RNA, chemistry not given here) [CR003365]
9.33

Query the reported Avg % Insert for TTR; item: GCCGUGGUGGAAUAGGAGUA (tested as dual guide RNA, chemistry not given here) [CR003387]
4.55

Query the reported Avg % Insert for TTR; item: UACUCACCUCUGCAUGCUCA (tested as dual guide RNA, chemistry not given here) [CR003372]
1.83

Query the reported Avg % Insert for TTR; item: CUCUGCAUGCUCAUGGAAUG (tested as dual guide RNA, chemistry not given here) [CR003369]
1.28

Query the reported Avg % Insert for TTR; item: AUUGGUGACGACAGCCGUGG (tested as dual guide RNA, chemistry not given here) [CR003389]
18.05
